Values from the supplement of paper PMC9112550

# System: Escherichia coli TOP10;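 also: peptides expressed intracellularly from a pBAD plasmid library in pooled LB shake-flask culture, induced with 0.3% L-arabinose, DNA abundance read by NGS, three biological replicates, DESeq2 with apeglm shrinkage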
# Test protocol: shrunken log2 fold change of peptide-encoding DNA abundance (4.5 h post-induction vs induction); higher = less antimicrobial activity (less host growth inhibition)
# Experimental conditions: time post-induction: 4.5 h; library: site-saturation at positions 5, 18, 19, 20
Note that class boundaries on shrunken log2 fold change are bucket 1: < -0.03; bucket 2: ≥ -0.03 and < 0.1; bucket 3: ≥ 0.1

> print(dat)
                  seq.text     group
1  RRIRSRPPRLPRPRPRPAVPPRP  bucket 3
2  RRIRFRPPRLPRPRPRPHEIPRP  bucket 1

Inquiry: For the record RRIRVRPPRLPRPRPRPCVWPRP , report the class its shrunken log2 fold change corresponds to.
Reply text: bucket 2

Inquiry: For the record RRIRARPPRLPRPRPRPKNRPRP , report the class its shrunken log2 fold change corresponds to.
Reply text: bucket 3

Inquiry: For the record RRIRQRPPRLPRPRPRPCQHPRP , report the class its shrunken log2 fold change corresponds to.
Reply text: bucket 2

Inquiry: For the record RRIRNRPPRLPRPRPRPRAVPRP , report the class its shrunken log2 fold change corresponds to.
Reply text: bucket 3
